composite z-score values by entry
measured target: Fibroblast growth factor 10 (Homo sapiens) (UniProt O15520)
Sequence (O15520 whole entry, looked up): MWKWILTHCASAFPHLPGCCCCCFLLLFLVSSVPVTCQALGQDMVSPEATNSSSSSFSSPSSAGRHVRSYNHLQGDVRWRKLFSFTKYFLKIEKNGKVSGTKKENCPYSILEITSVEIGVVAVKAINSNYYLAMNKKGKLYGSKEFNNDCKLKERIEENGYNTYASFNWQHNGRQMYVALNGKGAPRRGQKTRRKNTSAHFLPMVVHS
experiment notes: FGF10 binders on small-molecule microarrays, primary screen, biochemical, small-molecule microarray, 635 nm fluorescence (AID 1102)
reported conditions: FGF10 binding, fluorescence 635 nm, higher = more signal
// response body must contain only the number

Solved entries (count: 6):
COC(=O)[C@@H]1CC[C@H](C)[C@@H](c2ccc(C)cc2)N1C(=O)c1ccc(C=NOC(C)CN2CCCCc3nc(C)c(C)cc32)cc1 (stereo partly drawn) :: 0.127
COCCNC(=O)OCC1CCCC2(CC(OC(=O)NCCc3ccc(F)cc3)CC(CCC(=O)N[C@@H](C)C(=O)OC)O2)O1 (stereo partly drawn) :: 0.842
C=CC[C@]1(C(=O)NCc2ccccc2)N=C(c2ccc(OCCCO)cc2)O[C@H]1c1ccccc1 :: 0.462
CCCCCN1CC=CC23O[C@@H]4C=CCOC(=O)[C@@H]4[C@H]2C(=O)N(C(CO)C(C)C)[C@@H]3C1=O (stereo partly drawn) :: -0.512
C#C[C@@H]1Oc2ccccc2S(=O)(=O)N2CCC[C@H]12 :: 0.111
CC(C)=NOCc1ccc(-c2cc(-c3ccccc3)no2)cc1 :: 0.356

Problem: Dear colleague, I am looking for the recorded composite z-score of the following compound: `C[C@@H]1C=CCC(=O)OC[C@H](C)C(=O)N[C@@H](C)C(=O)OC1`
Solution: 0.336

Problem: Would you mind doing CC1CC/C=C\[C@H]2OC34C=CCN(Cn5nnc6ccccc65)C(=O)[C@H]3N(CCO)C(=O)[C@@H]4C2C(=O)O1 (stereo partly drawn) as well?
Solution: -1.16
